assay: viability loss in pontine glioma line – cell-based, SU-DIPG-XVII, MIPE5.0, CellTiter-Glo, qHTS, dose response (AID 1347060); conditions: CellTiter-Glo ATP luminescence;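 also: cells exposed to compound for 48 hours before viability readout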
Results filed as inconclusive are left out. Calls of active or inactive are those of the source. The limit is not given here; nearly all actives have AC50 up to about 26 µM.
reportedEndpoint: AC50

Some compounds with known AC50 results, for comparison:
{"columns": ["smilesRecord", "AC50"],
 "data": [
  ["C=CC(=O)N1CCC(Oc2cc3c(Nc4ccc(Cl)c(Cl)c4F)ncnc3cc2OC)CC1", "6.61 µM (active)"],
  ["CC(=O)[C@]1(N)Cc2c(O)c3c(c(O)c2[C@@H](O[C@H]2C[C@H](O)[C@H](O)CO2)C1)C(=O)c1ccccc1C3=O", "16.6 µM (active)"],
  ["C/C(=C\\c1csc(C)n1)[C@@H]1C[C@@H]2O[C@]2(C)CCC[C@H](C)[C@H](O)[C@@H](C)C(=O)C(C)(C)[C@@H](O)CC(=O)N1", "0.0148 µM (active)"]
]}

Now, please, on to the next compound.
Which AC50 is listed for `CN(C)C1CCN(C(=O)c2ccc(NC(=O)Nc3ccc(-c4nc(N5CCOCC5)nc(N5CCOCC5)n4)cc3)cc2)CC1` ?
0.332 µM (active)
